Test: qHTS assay for small molecule activators of the nuclear factor-kappa B (NF-kB) signaling pathway (AID 651749); further: % of control where 0% means no effect
Conditions: NF-kB-bla ME-180 cells, beta-lactamase FRET ratio, 16 h; stronger effect = higher value
Records with an inconclusive call do not appear.
parameter_measured: activation (%)
Field: numeric (%). Do not append units.

Some solved cases for reference:
compound=CCC(CC)Nc1c([N+](=O)[O-])cc(C)c(C)c1[N+](=O)[O-] test_result=-1.58
compound=CC(C)(c1ccccc1)c1cc(-n2nc3ccccc3n2)c(O)c(C(C)(C)c2ccccc2)c1 test_result=0.903
compound=Nc1ccccc1C(=O)OCCc1ccccc1 test_result=0.217
compound=CCOP(=O)(OCC)SCSP(=S)(OCC)OCC test_result=1.64

Q) Returns the measured activation for the input compound. Input: CC(C)N(C(=O)SCC(Cl)=C(Cl)Cl)C(C)C
A) -1.22

Q) Quick one: activation of Oc1ccc(C(c2ccc(O)cc2)(C(F)(F)F)C(F)(F)F)cc1 ?
A) -2.42

Q) Fill blank: measured activation of the compound CCNc1nc(NC(C)C)nc(OC)n1 is ____.
A) -1.42

----------
Assay: Cell Viability - Mesenchymal (AID 546);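 further: cells exposed to compound for 40 hours before reading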
Details: mesenchymal cells viability, qHTS
Results filed as inconclusive are left out. Active and inactive are the calls of the source. Calls follow the shape of the dose curve; as a rule, active = well fitted cell-killing curve with a large enough effect; inconclusive = small, poorly fitted or top-dose-only effect; inactive = flat fitted curve, though single readings scatter.
Just give me one of these, please: 1.0 for active, 0.0 for inactive

molecule_smiles=C#CCO class_assignment=0.0
molecule_smiles=N#CC(Cl)Cl class_assignment=0.0

Q) Any idea what this test logged for Nc1ccccc1C(=O)OCCc1ccccc1 ?
A) 0.0

Q) Tell me the recorded outcome of this test for COP(=O)(OC)O/C(=C\Cl)c1cc(Cl)c(Cl)cc1Cl .
A) 0.0

Q) Each compound tested received a call. Report the one for CCCCCCCCn1sccc1=O .
A) 1.0

Q) GET /call?item= OC(c1ccc(Cl)cc1)(c1ccc(Cl)cc1)C(Cl)(Cl)Cl returns the recorded outcome of this test.
A) 0.0

Q) Test call, this compound: N#CSCSC#N
A) 1.0

Q) Per the assay record, what outcome was assigned to C(=NC1CCCCC1)=NC1CCCCC1 ?
A) 0.0

----------
System: CP237
Assay: qHTS profiling for inhibitors of Plasmodium falciparum proliferation (AID 504749); further: nearly all actives have a fitted effect of over 60% in size
Settings: P. falciparum in erythrocytes, SYBR Green DNA, 72 h; series mostly up to 28.7 µM
Records with an inconclusive call do not appear. Active and inactive are the calls of the source. The call rests on the fitted dose curve; in most records, active means well fitted inhibition curve with a large enough effect; inconclusive means small, poorly fitted or top-dose-only effect; inactive means flat fitted curve, though single readings scatter.
Permitted responses: 1 (yes) (active), 0 (no) (inactive)

Consider the worked cases shown below.
molecule="OCC(O)[C@H]1O[C@@H]2O[C@H](C(Cl)(Cl)Cl)O[C@@H]2[C@H]1O (some centres not stated)" class_assignment="0 (no)"
molecule="CCC(=O)OC1(c2ccccc2)CCN(C)CC1C (configuration not stated)" class_assignment="1 (yes)"
molecule="C[C@]12CC[C@H]3[C@@H](CC[C@@]45O[C@@H]4C(=O)C(C#N)C[C@]35C)[C@@H]1CC[C@@H]2O (some centres not stated)" class_assignment="0 (no)"
molecule=[S]=[Sb][S][Sb]=[S] class_assignment="0 (no)"

Q) # lookup: test call for CCCC(C)C1(CC)C(=O)NC(=S)NC1=O (configuration not stated)
A) 0 (no)

Q) Field: outcome | Entry: CC(Cc1ccccc1)N(C)C (configuration not stated)
A) 0 (no)

Q) Dear all, I need the recorded test outcome for CCOC(=O)c1cncn1[C@@H](C)c1ccccc1 , thank you.
A) 0 (no)
